biological target: Torsin-1A (Homo sapiens) (UniProt O14656); test: small-molecule binders of mutant TOR1A in lysate, primary screen, cell lysate, small-molecule microarray, COS7 lysate, 635/667 nm fluorescence (AID 1150); conditions: COS7 hTOR1A mutant lysate, 635 nm fluorescence, higher = more signal;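 note: score pools 667 nm emission and signal to noise measuring lysate protein binding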
Sequence (O14656 whole entry, looked up): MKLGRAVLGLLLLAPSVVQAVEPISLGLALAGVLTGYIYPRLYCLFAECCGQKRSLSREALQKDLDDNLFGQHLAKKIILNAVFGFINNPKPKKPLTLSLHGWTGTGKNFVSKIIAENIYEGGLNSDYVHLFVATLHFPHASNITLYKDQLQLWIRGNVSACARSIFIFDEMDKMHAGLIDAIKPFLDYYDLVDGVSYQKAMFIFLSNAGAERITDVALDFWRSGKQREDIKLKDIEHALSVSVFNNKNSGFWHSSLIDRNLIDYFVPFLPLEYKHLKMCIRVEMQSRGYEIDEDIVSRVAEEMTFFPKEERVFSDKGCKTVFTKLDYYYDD
Would you please tag the item TRUE when its composite z-score is 0.4 or above, and FALSE when it is below?

Here are 6 compounds together with their reported answers.
compound	system	category
C=CC(COC(C)=O)NS(=O)(=O)c1ccc(Br)cc1 (centres undefined)	Torsin-1A (Homo sapiens) (UniProt O14656)	FALSE
CC(c1ccccc1)C(O)C1C=CC2C(=O)NC(=O)C2N1Nc1ccccn1 (centres undefined)	Torsin-1A (Homo sapiens) (UniProt O14656)	FALSE
COc1ccc(C(O)C2C=CC3C(=O)NC(=O)C3N2Nc2ccccn2)cc1OCc1ccccc1 (centres undefined)	Torsin-1A (Homo sapiens) (UniProt O14656)	TRUE
CCN(CC)c1ccc(N2CC=CC34O[C@@H]5C=CCCOC(=O)C5[C@H]3C(=O)N(CCCCCO)[C@@H]4C2=O)cc1 (some centres undefined)	Torsin-1A (Homo sapiens) (UniProt O14656)	FALSE
COC(=O)[C@@]1(Cc2ccccc2)N=C(c2ccc(OCCCO)cc2)O[C@H]1c1ccccc1N=[N+]=[N-]	Torsin-1A (Homo sapiens) (UniProt O14656)	TRUE
COCCOC(=O)N1C(=O)[C@@]2(c3cc(C#CC4=CCCCC4)ccc31)[C@H](C(=O)NC[C@H](O)c1ccccc1)[C@H]1C(=O)O[C@H](c3ccccc3)[C@H](c3ccccc3)N1[C@@H]2c1ccc(O)cc1	Torsin-1A (Homo sapiens) (UniProt O14656)	TRUE

Lookup: Quick check, composite z-score >= 0.4? CCCCC=C[C@@H](NC(=O)c1ccco1)c1ccccc1
Found: FALSE

Lookup: Please tell me: is the compound Cc1ccc(S[C@]2(C(=O)NCc3ccccc3)CC(=O)N(Cc3ccccc3Cl)[C@@H]2c2ccc(CO)cc2I)cc1 at or over 0.4 in terms of composite z-score?
Found: FALSE

Lookup: Reported composite z-score at or above 0.4? CC(C)CNC(=O)[C@@H]1c2ccccc2C(=O)N(Cc2cc(C(F)(F)F)cc(C(F)(F)F)c2)[C@H]1c1ccc(CO)cc1
Found: FALSE
